Every entry's value here was drawn from patent US11597708B2.

# targetDesc: HSF1 (Homo sapiens)
# Construct: functionally linked to an hsp70b promoter and therefore controlled by endogenous HSF1; endogenous in cells
# Sequence (Q00613 whole entry): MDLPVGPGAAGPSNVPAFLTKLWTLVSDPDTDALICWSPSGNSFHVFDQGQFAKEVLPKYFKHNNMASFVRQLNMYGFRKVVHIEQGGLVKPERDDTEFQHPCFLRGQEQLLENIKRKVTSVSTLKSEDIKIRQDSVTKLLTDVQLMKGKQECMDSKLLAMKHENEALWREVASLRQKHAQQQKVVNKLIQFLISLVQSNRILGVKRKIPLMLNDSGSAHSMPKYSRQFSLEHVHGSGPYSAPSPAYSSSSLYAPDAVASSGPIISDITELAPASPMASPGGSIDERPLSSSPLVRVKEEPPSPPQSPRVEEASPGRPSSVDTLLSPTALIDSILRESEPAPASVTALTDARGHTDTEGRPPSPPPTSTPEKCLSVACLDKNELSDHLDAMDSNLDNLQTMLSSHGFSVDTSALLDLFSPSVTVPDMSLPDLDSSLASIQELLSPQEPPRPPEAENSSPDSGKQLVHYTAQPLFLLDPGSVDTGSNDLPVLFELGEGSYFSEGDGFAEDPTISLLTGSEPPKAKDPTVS
# method: Z74 cell-based reporter assay: heat-induced RLuc expression controlled by endogenous HSF1
# recordedConditions: Z74 cells, inhibition of HSF1 activity [RLuc]
endpointName: IC50 (µM)

CN(C(=O)/C=C/C1=NCCCO1)c1ncc(-c2cccnc2)s1 [IHSF 115]: 0.7
CCOC(=O)/C=C/C(=O)Nc1nncs1 [IHSF 018]: 23.6

P = O=C(/C=C/C1=NCCCO1)Nc1nccs1 [IHSF 090]
Q = CCOC(=O)/C=C/C(=O)N(CCc1cn(C)cn1)c1nccs1 [IHSF 108]
R = CCOC(=O)/C=C/C(=O)Nc1nc(C(N)=O)c(-c2ccccc2)s1 [IHSF 109]
Input: Order the records so the highest IC50 appears first and the lowest last. Provide the labels, sequenced as the question asks.
Output: Q, R, P
(Q: 19.6 µM, R: 11.2 µM, P: 5.4 µM)

A = CCOC(=O)/C=C/C(=O)N(CCc1ccncc1)c1nccs1 [IHSF 099]
B = CCOC(=O)/C=C/C(=O)Nc1ncc(-c2cccnc2)s1 [IHSF 058]
Input: Look at A and B . Which one has the lower recorded IC50 number? Identify your selection by its label.
Output: B
